Tested on: HSV-1
Experiment: HSV-1 Antiviral Assay (Vero cells, cell viability)
Assay type: cell-based
Conditions: Human alphaherpesvirus 1, 96 h; Vero cells, 80 TCID50 HSV-1, 4 days, cell viability; read-out: HSV-1 EC50
Experimental: Vero cells were cultured in Dulbecco's Modified Eagle Medium (DMVEM) supplemented with […] and 100 units/mL penicillin and streptomycin. The cells were passaged 2-3 times per week to maintain sub-confluent densities. Vero cells were seeded into 96-well plates at a density of 2.5×10^3 cells per well and allowed to attach overnight. […] Following a 5-minute incubation, cell viability was quantified by measuring luminance using a Tecan Infinite M1000 Pro plate reader.
Can you tell me EC50 for the items I'm about to list?

For every listed record, write down its EC50.
1. Cc1nc(N2CCCN(c3ccc(-c4ccccc4C(F)F)cc3)C2=O)sc1S(N)(=O)=O
2. Cc1nc(N2CCCN(C(C)c3cccc(-c4cc(F)ccc4F)c3)C2=O)sc1S(N)(=O)=O (centres unmarked)
3. Cc1nc(N2CCCN(c3ccc(-c4ccc(C#CC(C)(C)O)cc4)cc3)C2=O)sc1S(N)(=O)=O
4. CNS(=O)(=O)c1sc(N2CCCN(c3ccc(-c4cc(F)ccn4)cc3)C2=O)nc1C
5. Cc1nc(N2CCCN(c3ccc(-c4ccccn4)c(F)c3)C2=O)sc1S(N)(=O)=O
6. CNS(=O)(=O)c1sc(N2CCCCN(c3ccc(-c4ccccn4)cc3)C2=O)nc1C
7. Cc1nc(N2CCCN(c3ccc(-c4ccccc4F)cc3)C2=O)sc1S(N)(=O)=O
8. CNS(=O)(=O)c1sc(N2CCCN(c3ccc(-c4ccccn4)c(F)c3)C2=O)nc1C

RESULT:
["< 100 nM", "1000 to 5000 nM", "1000 to 5000 nM", "< 100 nM", "< 100 nM", "< 100 nM", "< 100 nM", "< 100 nM"]

====

Tested on: HSV-1
Assay: HSV-1 Antiviral Assay (Vero cells, cell viability)
Format: cell-based
Conditions: Human alphaherpesvirus 1, 96 h; Vero cells, 80 TCID50 HSV-1, 4 days, cell viability; read-out: HSV-1 EC50
endpoint: EC50

Here's what some known entries look like.
{"structure.smiles.string": "Cc1nc(N2CCCN(c3ccc(-c4ccccn4)c(F)c3)C2=O)sc1S(=O)(=O)NC1CC1", "tested.system": "HSV-1", "endpoint": "EC50", "observed": "100 to 1000 nM"}
{"structure.smiles.string": "Cc1nc(N2CCCN(c3ccc(-c4cccc5c4OC(F)(F)O5)cc3)C2=O)sc1S(N)(=O)=O", "tested.system": "HSV-1", "endpoint": "EC50", "observed": "< 100 nM"}
{"structure.smiles.string": "CNS(=O)(=O)c1sc(N2CCCN(c3ccc(-c4cccc(NC(=O)OC(C)(C)C)n4)cc3)C2=O)nc1C", "tested.system": "HSV-1", "endpoint": "EC50", "observed": "100 to 1000 nM"}
{"structure.smiles.string": "Cc1nc(N2CCCN(c3ccc(-c4cccc5cn(C)nc45)cc3)C2=O)sc1S(N)(=O)=O", "tested.system": "HSV-1", "endpoint": "EC50", "observed": "100 to 1000 nM"}
{"structure.smiles.string": "Cc1nc(N2CCCN(c3ccc(-c4nc5ccccc5o4)cc3)C2=O)sc1S(N)(=O)=O", "tested.system": "HSV-1", "endpoint": "EC50", "observed": "1000 to 5000 nM"}

For every listed record, write down its EC50.
1. Cc1nc(N2CCCN(c3cccc(-c4ccccn4)c3)C2=O)sc1S(N)(=O)=O
2. Cc1nc(N2CCCN(Cc3cccc(-c4ccccc4)c3)C2=O)sc1S(N)(=O)=O
3. Cc1nc(N2CCCN(c3ccc(-c4ncc(C(F)(F)F)s4)cc3)C2=O)sc1S(N)(=O)=O

RESULT:
100 to 1000 nM
< 100 nM
1000 to 5000 nM

====

Test system: HSV-1
Experiment: HSV-1 Antiviral Assay (Vero cells, cell viability)
Type: cell-based
Details: Human alphaherpesvirus 1, 96 h; Vero cells, 80 TCID50 HSV-1, 4 days, cell viability; read-out: HSV-1 EC50
endpoint: EC50

{"compound": "CC[S@@](=N)(=O)c1sc(N2CCCN(c3ccc(-c4cc(F)ccc4F)cc3)C2=O)nc1C (single isomer, unassigned)", "observed": "100 to 1000 nM"}

For every listed record, write down its EC50.
1. Cc1nc(N2CCCN(c3ccc(-c4cccc5c4cnn5C)cc3)C2=O)sc1S(N)(=O)=O
2. Cc1nc(N2CCCN(c3ccc(-c4nc5ccccc5s4)cc3)C2=O)sc1S(N)(=O)=O

RESULT:
["< 100 nM", "100 to 1000 nM"]

For every listed record, write down its EC50.
1. Cc1nc(N2CCCN(c3ccc(-c4cccc5[nH]c(=O)sc45)cc3)C2=O)sc1S(N)(=O)=O
2. Cc1nc(N2CCCN(c3ccc(-c4nc5c(F)cccc5s4)cc3)C2=O)sc1S(N)(=O)=O
3. NS(=O)(=O)c1sc(N2CCCN(c3ccc(-c4cc(F)ccc4F)cc3)C2=O)nc1Cl
4. Cc1nc(N2CCCN([C@@H](C)c3cccc(-c4ccccc4F)c3)C2=O)sc1S(N)(=O)=O (single isomer, unassigned)
5. Cc1nc(N2CCCN(c3ccc(-c4cc(F)cc5ncsc45)cc3)C2=O)sc1S(N)(=O)=O
6. Cc1nc(N2CCCN(c3ccc(-c4cccnc4)cc3)C2=O)sc1S(N)(=O)=O
7. Cc1nc(N2CCCN(c3ccc(-c4cc(F)ccn4)cc3)C2=O)sc1S(N)(=O)=O

RESULT:
["100 to 1000 nM", "100 to 1000 nM", "< 100 nM", "1000 to 5000 nM", "< 100 nM", "100 to 1000 nM", "< 100 nM"]

For every listed record, write down its EC50.
1. Cc1nc(N2CCCN([C@H](C)c3cccc(-c4ccccc4F)c3)C2=O)sc1S(N)(=O)=O (single isomer, unassigned)
2. Cc1nc(N2CCCN(c3ccc(-c4cc(F)ccc4F)cc3)C2=O)sc1S(=O)(=O)C(C)C
3. Cc1nc(N2CCCN(c3ccc(-c4cc(F)ccc4C4CC4)cc3)C2=O)sc1S(N)(=O)=O

RESULT:
1: 1000 to 5000 nM; 2: 100 to 1000 nM; 3: < 100 nM

====

System: HSV-1
Assay: HSV-1 Antiviral Assay (Vero cells, cell viability)
Format: cell-based
Details: Human alphaherpesvirus 1, 96 h; Vero cells, 80 TCID50 HSV-1, 4 days, cell viability; read-out: HSV-1 EC50
endpoint: EC50

{"compound": "Cc1nc(N2CCCN(c3ccc(-c4cccc(F)c4)cc3)C2=O)sc1S(N)(=O)=O", "observed": "< 100 nM"}
{"compound": "CCS(=N)(=O)c1sc(N2CCCN(c3ccc(-c4cc(F)ccc4F)cc3)C2=O)nc1C (stereo not shown)", "observed": "< 100 nM"}
{"compound": "C#Cc1ccc(F)cc1-c1ccc(N2CCCN(c3nc(C)c(S(N)(=O)=O)s3)C2=O)cc1", "observed": "< 100 nM"}
{"compound": "Cc1nc(N2CC(C)CN(c3ccc(-c4cc(F)ccc4F)cc3)C2=O)sc1S(N)(=O)=O (stereo not shown)", "observed": "< 100 nM"}
{"compound": "Cc1nc(N2CCCN(c3ccc(-c4cc(F)ccc4F)cc3)C2=O)sc1S(C)(=N)=O (stereo not shown)", "observed": "100 to 1000 nM"}
{"compound": "CNS(=O)(=O)c1sc(N2CCCN(c3ccc(-c4nccs4)cc3)C2=O)nc1C", "observed": "< 100 nM"}

For every listed record, write down its EC50.
1. Cc1nc(N2CCCN(c3ccc(-c4cc(F)ccc4F)cc3)C2=O)sc1[S@@](C)(=N)=O (single isomer, unassigned)
2. Cc1nc(N2CCCN(c3ccc(-n4ncc5ccccc54)cc3)C2=O)sc1S(N)(=O)=O
3. Cc1nc(N2CCCN(c3ccc(-c4cccc5cn[nH]c45)cc3)C2=O)sc1S(N)(=O)=O
4. Cc1nc(N2CCCN(c3ccc(-c4ccc5c(cnn5C)c4)cc3)C2=O)sc1S(N)(=O)=O
5. Cc1nc(N2CCCN(c3ccc(-c4ccccc4F)cc3)C2=O)sc1S(C)(=O)=O
6. Cc1nc(N2CC3(COC3)CN(c3ccc(-c4cc(F)ccc4F)cc3)C2=O)sc1S(C)(=O)=O

RESULT:
100 to 1000 nM
< 100 nM
100 to 1000 nM
1000 to 5000 nM
< 100 nM
< 100 nM

For every listed record, write down its EC50.
1. Cc1nc(N2CC(C)(C)CN(c3ccc(-c4cc(F)ccc4F)cc3)C2=O)sc1S(N)(=O)=O
2. Cc1nc(N2CC(C)(C)CN(c3ccc(-c4ccccc4F)cc3)C2=O)sc1S(N)(=O)=O
3. Cc1nc(N2CC(F)CN(c3ccc(-c4cc(F)ccc4F)cc3)C2=O)sc1S(N)(=O)=O (stereo not shown)
4. Cc1nc(N2CCCN(c3ccc(-c4cccc5c4ncn5C)cc3)C2=O)sc1S(N)(=O)=O

RESULT:
< 100 nM
< 100 nM
< 100 nM
100 to 1000 nM
